All values here come from patent US6649763B1.

Test system: Staphylococcus aureus 241
ASSAY_PROTOCOL: Antibacterial activity in vitro (MIC, agar dilution)
Format: cell-based
PARTICULARS: resistant strain Staphylococcus aureus 241, read-out: minimum inhibitory concentration (MIC)
Recorded log10 MIC values for a group of compounds are listed next.
QUANTITY_KIND: log10 MIC (log10 of the value in µg/mL)

{"COMPOUND": "C[C@@H]1CN(c2c(F)c(N)c3c(=O)c(C(=O)O)cn(C4CC4)c3c2F)C[C@H](C)N1", "TARGET_ENTITY": "Staphylococcus aureus 241", "QUANTITY_KIND": "log10 MIC", "RESULT_NUMBER": 0.80}
{"COMPOUND": "CO/N=C1\\CN(c2cc3c(cc2F)c(=O)c(C(=O)O)cn3C2CC2)CC1(C)CN.Cl (single isomer, unassigned; (-))", "TARGET_ENTITY": "Staphylococcus aureus 241", "QUANTITY_KIND": "log10 MIC", "RESULT_NUMBER": -0.71}
{"COMPOUND": "CO/N=C1\\CN(c2c(F)c(N)c3c(=O)c(C(=O)O)cn(C4CC4)c3c2F)CC1(C)CN.Cl (single isomer, unassigned; (-))", "TARGET_ENTITY": "Staphylococcus aureus 241", "QUANTITY_KIND": "log10 MIC", "RESULT_NUMBER": -1.89}
{"COMPOUND": "CO/N=C1\\CN(c2nc3c(cc2F)c(=O)c(C(=O)O)cn3C2CC2)CC1(C)CN.Cl (single isomer, unassigned; (-))", "TARGET_ENTITY": "Staphylococcus aureus 241", "QUANTITY_KIND": "log10 MIC", "RESULT_NUMBER": -1.01}
{"COMPOUND": "O=C(O)c1cn(C2CC2)c2cc(N3CCNCC3)c(F)cc2c1=O", "TARGET_ENTITY": "Staphylococcus aureus 241", "QUANTITY_KIND": "log10 MIC", "RESULT_NUMBER": 1.10}

* * *

Recorded MIC values for a group of compounds are listed next.
Tested on: Staphylococcus aureus 208E
ASSAY_PROTOCOL: Antibacterial activity in vitro (MIC, agar dilution)
Type: cell-based
PARTICULARS: resistant strain Staphylococcus aureus 208E, read-out: minimum inhibitory concentration (MIC)

{"COMPOUND": "CO/N=C1\\CN(c2nc3c(cc2F)c(=O)c(C(=O)O)cn3C2CC2)CC1(C)CN.Cl (single isomer, unassigned; (-)) [Example 9]", "MIC": "< 0.002 µg/mL"}
{"COMPOUND": "CO/N=C1\\CN(c2c(F)c(N)c3c(=O)c(C(=O)O)cn(C4CC4)c3c2F)CC1(C)CN.Cl (single isomer, unassigned; (-)) [Example 14]", "MIC": "< 0.002 µg/mL"}
{"COMPOUND": "C[C@@H]1CN(c2c(F)c(N)c3c(=O)c(C(=O)O)cn(C4CC4)c3c2F)C[C@H](C)N1 [Sparfloxacin, sparfloxacin]", "MIC": "0.098 µg/mL"}
{"COMPOUND": "O=C(O)c1cn(C2CC2)c2cc(N3CCNCC3)c(F)cc2c1=O [Ciprofloxacin, ciprofloxacin]", "MIC": "0.781 µg/mL"}
{"COMPOUND": "CO/N=C1\\CN(c2cc3c(cc2F)c(=O)c(C(=O)O)cn3C2CC2)CC1(C)CN.Cl (single isomer, unassigned; (-)) [Example 19]", "MIC": "0.007 µg/mL"}

* * *

System: Staphylococcus aureus 241
ASSAY_PROTOCOL: Antibacterial activity in vitro (MIC, agar dilution)
Format: cell-based
PARTICULARS: resistant strain Staphylococcus aureus 241

{"COMPOUND": "CO/N=C1\\CN(c2nc3c(cc2F)c(=O)c(C(=O)O)cn3C2CC2)CC1(C)CN.Cl (single isomer, unassigned) [Enantiomer of Example 9 Compound]", "minimum inhibitory concentration (MIC) (µg/mL)": 1.563}
{"COMPOUND": "CO/N=C1\\CN(c2cc3c(cc2F)c(=O)c(C(=O)O)cn3C2CC2)CC1(C)CN.Cl (single isomer, unassigned) [Enantiomer of Example 19 Compound]", "minimum inhibitory concentration (MIC) (µg/mL)": 3.125}
{"COMPOUND": "CO/N=C1\\CN(c2nc3c(cc2F)c(=O)c(C(=O)O)cn3C2CC2)CC1(C)CN.Cl (racemic) [Racemate of Example 9 Compound]", "minimum inhibitory concentration (MIC) (µg/mL)": 0.195}

* * *

Test system: Staphylococcus aureus 693E
ASSAY_PROTOCOL: Antibacterial activity in vitro (MIC, agar dilution)
Assay type: cell-based
PARTICULARS: resistant strain Staphylococcus aureus 693E

{"COMPOUND": "CO/N=C1\\CN(c2nc3c(cc2F)c(=O)c(C(=O)O)cn3C2CC2)CC1(C)CN.Cl (racemic) [Racemate of Example 9 Compound]", "RESULT_COMPARATOR": "=", "minimum inhibitory concentration (MIC) (ng/mL)": 7}
{"COMPOUND": "CO/N=C1\\CN(c2c(F)c(N)c3c(=O)c(C(=O)O)cn(C4CC4)c3c2F)CC1(C)CN.Cl (single isomer, unassigned) [Enantiomer of Example 14 Compound]", "RESULT_COMPARATOR": "=", "minimum inhibitory concentration (MIC) (ng/mL)": 4}
{"COMPOUND": "CO/N=C1\\CN(c2nc3c(cc2F)c(=O)c(C(=O)O)cn3C2CC2)CC1(C)CN.Cl (single isomer, unassigned) [Enantiomer of Example 9 Compound]", "RESULT_COMPARATOR": "=", "minimum inhibitory concentration (MIC) (ng/mL)": 25}
{"COMPOUND": "CO/N=C1\\CN(c2c(F)c(N)c3c(=O)c(C(=O)O)cn(C4CC4)c3c2F)CC1(C)CN.Cl (racemic) [Racemate of Example 14 Compound]", "RESULT_COMPARATOR": "<", "minimum inhibitory concentration (MIC) (ng/mL)": 2}
{"COMPOUND": "CO/N=C1\\CN(c2cc3c(cc2F)c(=O)c(C(=O)O)cn3C2CC2)CC1(C)CN.Cl (racemic) [Racemate of Example 19 Compound]", "RESULT_COMPARATOR": "=", "minimum inhibitory concentration (MIC) (ng/mL)": 13}
{"COMPOUND": "CO/N=C1\\CN(c2cc3c(cc2F)c(=O)c(C(=O)O)cn3C2CC2)CC1(C)CN.Cl (single isomer, unassigned) [Enantiomer of Example 19 Compound]", "RESULT_COMPARATOR": "=", "minimum inhibitory concentration (MIC) (ng/mL)": 98}

* * *

Recorded minimum inhibitory concentration (MIC) values for a group of molecules are listed next.
Tested on: Staphylococcus aureus 121E
ASSAY_PROTOCOL: Antibacterial activity in vitro (MIC, agar dilution)
Type: cell-based
PARTICULARS: resistant strain Staphylococcus aureus 121E
QUANTITY_KIND: minimum inhibitory concentration (MIC) (µg/mL)

{"MOLECULE": "CO/N=C1\\CN(c2cc3c(cc2F)c(=O)c(C(=O)O)cn3C2CC2)CC1(C)CN.Cl (single isomer, unassigned) [Enantiomer of Example 19 Compound]", "QUANTITY_KIND": "minimum inhibitory concentration (MIC)", "VALUE_UNIT": "µg/mL", "RESULT_COMPARATOR": "=", "RESULT_NUMBER": 0.098}
{"MOLECULE": "CO/N=C1\\CN(c2c(F)c(N)c3c(=O)c(C(=O)O)cn(C4CC4)c3c2F)CC1(C)CN.Cl (racemic) [Racemate of Example 14 Compound]", "QUANTITY_KIND": "minimum inhibitory concentration (MIC)", "VALUE_UNIT": "µg/mL", "RESULT_COMPARATOR": "<", "RESULT_NUMBER": 0.002}
{"MOLECULE": "CO/N=C1\\CN(c2cc3c(cc2F)c(=O)c(C(=O)O)cn3C2CC2)CC1(C)CN.Cl (racemic) [Racemate of Example 19 Compound]", "QUANTITY_KIND": "minimum inhibitory concentration (MIC)", "VALUE_UNIT": "µg/mL", "RESULT_COMPARATOR": "=", "RESULT_NUMBER": 0.013}
{"MOLECULE": "CO/N=C1\\CN(c2c(F)c(N)c3c(=O)c(C(=O)O)cn(C4CC4)c3c2F)CC1(C)CN.Cl (single isomer, unassigned) [Enantiomer of Example 14 Compound]", "QUANTITY_KIND": "minimum inhibitory concentration (MIC)", "VALUE_UNIT": "µg/mL", "RESULT_COMPARATOR": "=", "RESULT_NUMBER": 0.013}
{"MOLECULE": "CO/N=C1\\CN(c2nc3c(cc2F)c(=O)c(C(=O)O)cn3C2CC2)CC1(C)CN.Cl (racemic) [Racemate of Example 9 Compound]", "QUANTITY_KIND": "minimum inhibitory concentration (MIC)", "VALUE_UNIT": "µg/mL", "RESULT_COMPARATOR": "=", "RESULT_NUMBER": 0.007}
{"MOLECULE": "CO/N=C1\\CN(c2nc3c(cc2F)c(=O)c(C(=O)O)cn3C2CC2)CC1(C)CN.Cl (single isomer, unassigned) [Enantiomer of Example 9 Compound]", "QUANTITY_KIND": "minimum inhibitory concentration (MIC)", "VALUE_UNIT": "µg/mL", "RESULT_COMPARATOR": "=", "RESULT_NUMBER": 0.049}
